Consider the following molecules; for each one, report its IRF reporter.
# Tested on: RAW-Dual (murine macrophage reporter line)
# METHOD NOTES: IRF reporter (Lucia luciferase) activity fold change vs agonist alone; higher = enhanced IRF activity
# EXPERIMENTAL CONTEXT: modulator concentration 10 µM; agonist: MPLA […]
Numbers only.

{"MOLECULE": "NS(=O)(=O)C#Cc1ccccc1", "ASSAY TARGET": "RAW-Dual (murine macrophage reporter line)", "IRF reporter": 0.0392}
{"MOLECULE": "CCN(CC)CC#CCOC(=O)C(O)(c1ccccc1)C1CCCCC1.Cl (centres undefined)", "ASSAY TARGET": "RAW-Dual (murine macrophage reporter line)", "IRF reporter": 1.19}
{"MOLECULE": "Cc1cc(Nc2cc(N3CCN(C)CC3)nc(Sc3ccc(NC(=O)C4CC4)cc3)n2)n[nH]1", "ASSAY TARGET": "RAW-Dual (murine macrophage reporter line)", "IRF reporter": 0.451}
{"MOLECULE": "CN1CCN(CCC=C2c3ccccc3Sc3ccc(S(=O)(=O)N(C)C)cc32)CC1", "ASSAY TARGET": "RAW-Dual (murine macrophage reporter line)", "IRF reporter": 0.872}
{"MOLECULE": "CC(=O)OCCN(CCOC(C)=O)c1c(C)[nH]c(=O)[nH]c1=O", "ASSAY TARGET": "RAW-Dual (murine macrophage reporter line)", "IRF reporter": 1.7}

Go through the items and report each one's IRF reporter.
1. COC(=O)C(NC(=O)C(C)(C)C)C12CC3CC(CC(C3)C1)C2 (centres undefined)
2. Cc1cc(C)nc(NS(=O)(=O)c2ccc(NC(=O)C=Cc3cccc4ccccc34)cc2)n1
3. Cc1ccc(C(=O)N2N=C(c3ccncc3)CC2(O)C(F)(F)F)cc1 (centres undefined)
4. CCOc1ccc(C=NNc2nc(C)cs2)c(O)c1
5. COc1ccc(CNCc2ccc3ccccc3c2)c(OC)c1
6. CCC(=O)Nc1ccc(N2CCOCC2)c(Cl)c1

1. 1.49
2. 1.04
3. 1.29
4. 0.981
5. 2.05
6. 1.01

----------
# Tested on: RAW-Dual (murine macrophage reporter line)
# METHOD NOTES: viability score (confluency relative to resting cells, overnight) (fraction); higher = more viable, active = viable (0.7 or more)
# EXPERIMENTAL CONTEXT: modulator concentration 10 µM
Please go through the items and note down their viability score.
Answers are plain numbers.

{"COMPOUND": "CC1CC2(NC(=O)NC2=O)C(C)CN1C (stereo unspecified)", "viability score": 1}

Would you mind giving viability score for every compound in the list below?
1. Cc1cc(N2CCCC2)nc(Nc2ccc(NC(=O)CC(C)C)cc2)n1
2. CC[C@@H]1C(=O)N(C)c2cnc(Nc3ccc(C(=O)N[C@H]4CC[C@H](N5CCN(CC6CC6)CC5)CC4)cc3OC)nc2N1C(C)C
3. CC(C)NCC(O)COCCOc1ccc(C(C)(C)C)cc1.Cl (stereo unspecified)
4. CCN(CC)c1ccc(C=NNc2cc(N3CCOCC3)nc(N3CCOCC3)n2)cc1
5. FC(F)(F)c1ccc(CN2CCCC(c3nc4ccccc4[nH]3)C2)cc1 (stereo unspecified)

1. 0.939
2. 0.018
3. 0.934
4. 0.994
5. 0.903

// for each compound in input: emit viability score
1. COC(=O)C1C(O)CCC2CN3CCc4c([nH]c5ccccc45)C3CC21.Cl (stereo unspecified)
2. CNC(=O)C(=O)Nc1cc(Cl)ccc1C
3. CCOc1ccc(N=Cc2c(Nc3ccc(OCC)cc3)nc3ccccn3c2=O)cc1

1. 0.995
2. 1
3. 1.04

Hi team, please reply with viability score for each item in this list.
1. COc1cc(C=C(C#N)c2nc3ccccc3[nH]2)cc(Cl)c1O
2. COc1cc(=O)n(C)cc1C(=O)Nc1cccnc1

[0.998, 0.967]

Source: the supplement of paper PMC10646978
